Ref: patent US20070265256A1

Molecular target: UniProt:Q8CA95
Sequence (Q8CA95 446-763 limits assumed): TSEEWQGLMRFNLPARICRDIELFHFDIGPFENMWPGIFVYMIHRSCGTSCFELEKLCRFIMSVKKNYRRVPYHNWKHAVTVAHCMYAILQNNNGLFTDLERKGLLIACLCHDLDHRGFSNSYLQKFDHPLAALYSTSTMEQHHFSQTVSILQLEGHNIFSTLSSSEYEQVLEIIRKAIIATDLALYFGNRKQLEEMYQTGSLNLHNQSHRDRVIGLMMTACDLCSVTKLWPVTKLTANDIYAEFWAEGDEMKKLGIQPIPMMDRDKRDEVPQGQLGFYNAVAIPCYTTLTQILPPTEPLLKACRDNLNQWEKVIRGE
pIC50: −log10 of the molar value.
OBSERVABLE: pIC50

Answered examples (2):
>  <MOL>
COc1cc2nncc(-c3cccc(C4=NC(C)(C)CO4)c3)c2cc1OC

>  <pIC50>
7.51

$$$$
>  <MOL>
COc1cc2nncc(-c3ccnc(N4CCOCC4)c3F)c2cc1OC

>  <pIC50>
7.21

$$$$

(P) COc1cc2nncc(-c3ccc(Oc4ccccc4)nc3)c2cc1OC
(Q) COc1cc2nncc(-c3ccc(OCC4CC4)nc3)c2cc1OC
Form field 'greater pIC50' accepts P or Q ; which applies? Pick one; state its label.
Q
